test system: TK-10 renal; test: NCI-60 one-dose screen, 48 h; details: 10 µM unless noted
This is part of a sample that, as a whole, favours compounds with a hit. Of some 83,000 tested, about 20% had one in any assay. The source made the active and inactive calls. The calls were made as follows: active = growth percent below 10; inactive = the rest.
In this exercise, the only acceptable responses are class 1 (active), class 0 (inactive)

Example entries begin here.
- COMPOUND: "CC12OOC(c3ccccc31)c1c2ccc2ccccc12 (stereo not given)"
  CATEGORY LABEL: "class 1"
- COMPOUND: "COc1cc(/C=C/[N+](=O)[O-])cc(OC)c1OC"
  CATEGORY LABEL: "class 1"
- COMPOUND: "COc1cc([C@@H]2c3cc4c(c(O)c3C[C@H]3COC(=O)[C@@H]32)OCO4)cc(OC)c1OC"
  CATEGORY LABEL: "class 0"

IN: Could you please tell me the result logged for COC(=O)C1C(O)C(C)C(O)C(C)/C=C\C=C(C)C(=O)Nc2c(C)c(OC(C)=O)c3c(c2O)C(=O)C(C)=C2OCOC(=C23)C(C)=CC(C)(O)C(O)C(C)C1O (stereo not given) in this assay?
OUT: class 0

IN: Could you please tell me the result logged for COc1ccc(/C=C(\C)[N+](=O)[O-])cc1OC in this assay?
OUT: class 1
